# Tested on: interferon (α) (IFN-α)
# assay text: Cytokine induction in human cells: IFN-α secreted by PBMC into culture media (ELISA)
# Format: cell-based
# condition notes: Table 10; human PBMC; lowest tested concentration inducing IFN-α over usually 20 pg/mL; median where more than one experiment; read-out: Minimum Effective Concentration (μM) IFN
readout label: minimal effective concentration

# count of solved cases: 5
CCOCc1nc2c(N)nc3cc(-c4cncc(CO)c4)ccc3c2n1CC(C)C : 0.04 µM
Cc1ccc(-c2ccc3c(c2)nc(N)c2nc(CO)n(CC(C)(C)O)c23)cc1 : 0.37 µM
CC(C)Cn1c(CCO)nc2c(N)nc3cc(-c4cccnc4)ccc3c21 : 0.37 µM
COCc1nc2c(N)nc3cc(-c4cccnc4)ccc3c2n1CC(C)(C)O : 0.37 µM
COCCc1nc2c(N)nc3cc(-c4cncc(CO)c4)ccc3c2n1CC(C)C : 0.014 µM

# get_value(readout= minimal effective concentration, system= interferon (α) (IFN-α)) for `CCCNC(=O)NCCCCn1c(CCC)nc2c(N)nc3cc(-c4cccnc4)ccc3c21`
0.37 µM

Provide value of minimal effective concentration for this record tested with interferon (α) (IFN-α): `CCOCc1nc2c(N)nc3cc(-c4ccccc4)ccc3c2n1CC(C)(C)O`
0.014 µM

Param readout= minimal effective concentration; system= interferon (α) (IFN-α); entry= `CCCc1nc2c(N)nc3cc(-c4cncc(CO)c4)ccc3c2n1CC(C)(C)O` ; returns value.
0.014 µM

# value lookup — system interferon (α) (IFN-α), readout minimal effective concentration, item `COCCc1nc2c(N)nc3cc(-c4ccncc4)ccc3c2n1CCCN1CCCC1=O`
0.37 µM
